Test system: human maximum recommended daily dose, FDA database
Experiment: DSSTox (FDAMDD) FDA Maximum (Recommended) Daily Dose Database
Settings: TherapeuticCategory: progestogen; active compounds read low
Text: The Food and Drug Administration (FDA) Center for Drug Evaluation and Research, Office of Pharmaceutical Science, Informatics and Computational Safety Analysis Staff's Maximum Recommended Daily Dose (FDAMDD) database contains values for over 1200 pharmaceuticals listed in Martindale: The Extra Pharmacopoeia (1973, 1983, and 1993) and The Physicians' Desk Reference (1995 and 1999). […]
Listed here are compounds together with their documented maximum recommended daily dose (mmol/kg-bw/day).
reported-endpoint: maximum recommended daily dose (mmol/kg-bw/day)

[
  {
    "molecule-smiles": "C#C[C@]1(O)CC[C@H]2[C@@H]3CCC4=C(CCC(=O)C4)[C@H]3CC[C@@]21C",
    "reading": 0.00224
  },
  {
    "molecule-smiles": "C#C[C@]1(OC(C)=O)CC[C@H]2[C@@H]3CCC4=C[C@@H](OC(C)=O)CC[C@@H]4[C@H]3CC[C@@]21C",
    "reading": "4.34e-05"
  },
  {
    "molecule-smiles": "C#C[C@]1(O)CC[C@H]2[C@@H]3CCC4=CCCC[C@@H]4[C@H]3C(=C)C[C@@]21CC",
    "reading": "8.05e-06"
  },
  {
    "molecule-smiles": "CC(=O)[C@H]1CC[C@H]2[C@@H]3C=CC4=CC(=O)CC[C@@]4(C)[C@@H]3CC[C@]12C",
    "reading": 0.0016
  },
  {
    "molecule-smiles": "C#C[C@]1(O)CC[C@H]2[C@@H]3CCC4=CC(=O)CC[C@@H]4[C@H]3CC[C@@]21C",
    "reading": "5.6e-05"
  },
  {
    "molecule-smiles": "C#C[C@]1(O)CC[C@H]2[C@@H]3CCC4=CC(=O)CC[C@]4(C)[C@H]3CC[C@@]21C",
    "reading": 0.00534
  },
  {
    "molecule-smiles": "C=CC[C@]1(O)CC[C@H]2[C@@H]3CCC4=CCCC[C@@H]4[C@H]3CC[C@@]21C",
    "reading": 0.000832
  },
  {
    "molecule-smiles": "C#C[C@]1(OC(C)=O)CC[C@H]2[C@@H]3CCC4=CC(=O)CC[C@@H]4[C@H]3CC[C@@]21C",
    "reading": "4.91e-05"
  },
  {
    "molecule-smiles": "C#C[C@]1(O)CC[C@H]2[C@@H]3CCC4=C[C@@H](O)CC[C@@H]4[C@H]3CC[C@@]21C",
    "reading": "5.56e-05"
  }
]
